# assay-system: CRBN-DDB1 (Homo sapiens (Human))
# Sequence (Q96SW2 whole entry): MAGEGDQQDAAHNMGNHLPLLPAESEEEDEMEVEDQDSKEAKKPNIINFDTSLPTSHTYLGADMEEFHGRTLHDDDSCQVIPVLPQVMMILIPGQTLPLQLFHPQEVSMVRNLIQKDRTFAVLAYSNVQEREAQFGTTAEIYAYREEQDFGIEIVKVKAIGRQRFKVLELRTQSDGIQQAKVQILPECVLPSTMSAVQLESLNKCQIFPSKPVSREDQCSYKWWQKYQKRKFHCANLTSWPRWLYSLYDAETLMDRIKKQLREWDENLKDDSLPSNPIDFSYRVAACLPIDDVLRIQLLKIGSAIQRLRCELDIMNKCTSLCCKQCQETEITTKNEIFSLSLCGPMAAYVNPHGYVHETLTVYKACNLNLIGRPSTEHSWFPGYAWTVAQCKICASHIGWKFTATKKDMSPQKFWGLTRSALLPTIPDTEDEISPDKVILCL
# Sequence (Q16531 whole entry partner): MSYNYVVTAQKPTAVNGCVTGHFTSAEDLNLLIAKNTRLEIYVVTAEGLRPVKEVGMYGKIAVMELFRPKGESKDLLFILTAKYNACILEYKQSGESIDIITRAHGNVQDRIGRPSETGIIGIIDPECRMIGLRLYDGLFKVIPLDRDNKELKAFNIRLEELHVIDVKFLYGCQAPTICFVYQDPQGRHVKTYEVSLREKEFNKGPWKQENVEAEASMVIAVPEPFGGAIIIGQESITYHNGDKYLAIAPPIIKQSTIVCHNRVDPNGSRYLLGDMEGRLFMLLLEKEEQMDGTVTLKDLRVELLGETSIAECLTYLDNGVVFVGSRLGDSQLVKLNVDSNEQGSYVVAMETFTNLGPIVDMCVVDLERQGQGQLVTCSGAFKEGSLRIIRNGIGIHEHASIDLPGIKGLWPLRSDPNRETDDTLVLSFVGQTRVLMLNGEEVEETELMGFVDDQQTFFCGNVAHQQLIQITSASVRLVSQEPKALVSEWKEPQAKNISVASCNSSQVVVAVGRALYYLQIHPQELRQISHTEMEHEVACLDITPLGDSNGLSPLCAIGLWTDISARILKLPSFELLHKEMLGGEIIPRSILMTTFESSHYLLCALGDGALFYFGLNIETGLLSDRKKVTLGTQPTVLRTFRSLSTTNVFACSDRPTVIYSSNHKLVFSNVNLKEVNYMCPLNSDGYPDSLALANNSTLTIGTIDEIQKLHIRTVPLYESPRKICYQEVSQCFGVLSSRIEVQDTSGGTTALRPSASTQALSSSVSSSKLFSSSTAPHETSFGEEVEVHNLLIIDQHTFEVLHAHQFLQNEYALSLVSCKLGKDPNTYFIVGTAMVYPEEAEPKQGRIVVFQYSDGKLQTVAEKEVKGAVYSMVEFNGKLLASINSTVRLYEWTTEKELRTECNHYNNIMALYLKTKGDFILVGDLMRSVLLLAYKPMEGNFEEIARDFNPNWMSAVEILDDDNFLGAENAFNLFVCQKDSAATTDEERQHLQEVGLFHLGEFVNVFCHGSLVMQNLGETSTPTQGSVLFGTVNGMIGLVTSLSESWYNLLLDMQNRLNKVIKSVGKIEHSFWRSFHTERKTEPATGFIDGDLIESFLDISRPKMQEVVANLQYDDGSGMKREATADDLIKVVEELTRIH
# test-description: CRBN HTRF assay (Cy5-Thalidomide probe displacement)
# Assay type: binding
# condition-summary: CRBN-DDB1 2.5 nM, Cy5-Thalidomide 100 nM, 30 min; Ki from geometric mean IC50 by Cheng-Prusoff
pKi: −log10 of the molar value.

compound	pKi
COc1c(N2CC(NC(=O)OCC3CC4(CCC4)C3)C2)ccc(C2CCC(=O)NC2=O)c1Cl (stereo not shown)	6.00 to 7.00
Cc1ccccc1N(C)C(=O)C12CC(OC(=O)NC3CN(c4cc(F)c(C5CCC(=O)NC5=O)c(F)c4)C3)(C1)C2 (stereo not shown)	6.00 to 7.00
C[C@@H]1[C@@H](Nc2nnc(C34CC(C(F)(F)F)(C3)C4)o2)CN1c1cc(F)c(C2CCC(=O)NC2=O)c(F)c1 (stereo partly shown)	6.00 to 7.00
CN(C(=O)N1CC(OC(=S)NC2CN(c3cc(F)c(C4CCC(=O)NC4=O)c(F)c3)C2)C1)C1CC1 (stereo not shown)	≥ 7.00

----------
# assay-system: CDK2 (Homo sapiens (Human), UniProt P24941)
# test-description: CDK2 NanoBiT assay (HiBiT-tagged CDK2 degradation)
# Type: cell-based
# condition-summary: HEK293, HEK293 clonal line, C-terminal HiBiT tag on CDK2, LgBiT; 24 hours
Dmax values for the molecules below.

molecule	Dmax
O=C1CCC(c2c(F)cc(N3CC(NC(=O)OC4CN(c5ccccn5)C4)C3)cc2F)C(=O)N1 (stereo not shown)	50 to 80%
Cc1cccc(-c2nnc(NC3CN(c4cc(F)c(C5CCC(=O)NC5=O)c(F)c4)C3)o2)c1 (stereo not shown)	> 80%
C[C@@H]1[C@@H](Nc2nnc(-c3ccc(C(F)(F)F)cc3)o2)CN1c1cc(F)c(C2CCC(=O)NC2=O)c(F)c1 (stereo partly shown)	50 to 80%
O=C1CCC(c2c(F)cc(N3CC(NC(=O)OCC#CC4CC4)C3)cc2F)C(=O)N1 (stereo not shown)	10 to 50%

----------
# assay-system: CDK2 (Homo sapiens (Human), UniProt P24941)
# test-description: CDK2 NanoBiT assay (HiBiT-tagged CDK2 degradation)
# Format: cell-based
# condition-summary: HEK293, HEK293 clonal line, C-terminal HiBiT tag on CDK2, LgBiT; 24 hours
This listing pairs molecules with measured Dmax.
experimental-endpoint: Dmax

molecule	experimental-endpoint	val
CN(C(=O)N1CC[C@@H](OC(=O)NC2CN(c3cc(F)c(C4CCC(=O)NC4=O)c(F)c3)C2)C1)C1CC1 (stereo partly shown) [Compound 25]	Dmax	10 to 50%
CC(C)(C)O[C@H]1C[C@@H](OC(=O)NC2CN(c3cc(F)c(C4CCC(=O)NC4=O)c(F)c3)C2)C1 (stereo partly shown) [Compound 46]	Dmax	50 to 80%
CN(C(=O)N1CCC(OC(=O)NC2CN(c3cc(F)c(C4CCC(=O)NC4=O)c(F)c3)C2)CC1)C1CC1 (stereo not shown) [Compound 88]	Dmax	50 to 80%
Cn1nccc1N1CC(OC(=O)NC2CN(c3cc(F)c(C4CCC(=O)NC4=O)c(F)c3)C2)C1 (stereo not shown) [Compound 7]	Dmax	10 to 50%

----------
# assay-system: UniProt:P24941
# test-description: CDK2 NanoBiT assay (HiBiT-tagged CDK2 degradation)
# Format: cell-based
# condition-summary: HEK293, HEK293 clonal line, C-terminal HiBiT tag on CDK2, LgBiT; 24 hours
experimental-endpoint: Dmax

compound	assay-system	experimental-endpoint	val
COc1ccc(C(=O)N2CC(OC(=O)NC3CN(c4cc(F)c(C5CCC(=O)NC5=O)c(F)c4)C3)C2)cc1 (centres unmarked) [Compound 21]	UniProt:P24941	Dmax	10 to 50%
CN(C(=O)C12CC(OC(=O)NC3CN(c4cc(F)c(C5CCC(=O)NC5=O)c(F)c4)C3)(C1)C2)c1ccc(C#N)cc1 (centres unmarked) [Compound 120]	UniProt:P24941	Dmax	10 to 50%
O=C1CCC(c2c(F)cc(N3CC(NC(=O)OC4CN(C(=O)C5CC5)C4)C3)cc2F)C(=O)N1 (centres unmarked) [Compound 41]	UniProt:P24941	Dmax	10 to 50%
COc1c(N2CC(NC(=O)OCC3CC4(CCC4)C3)C2)ccc(C2CCC(=O)NC2=O)c1Cl (centres unmarked) [Compound 63]	UniProt:P24941	Dmax	> 80%
Cc1ccc(N(C)C(=O)N2CC(OC(=O)NC3CN(c4cc(F)c(C5CCC(=O)NC5=O)c(F)c4)C3)C2)c(C)c1 (centres unmarked) [Compound 116]	UniProt:P24941	Dmax	10 to 50%
CN(C(=O)C12CC(OC(=O)NC3CN(c4cc(F)c(C5CCC(=O)NC5=O)c(F)c4)C3)(C1)C2)c1ccccc1 (centres unmarked) [Compound 81]	UniProt:P24941	Dmax	> 80%
O=C1CCC(c2c(F)cc(N3CC(Nc4nnc(-c5ccccn5)o4)C3)cc2F)C(=O)N1 (centres unmarked) [Compound 124]	UniProt:P24941	Dmax	10 to 50%
CN(CC1CC1)C(=O)C12CC(OC(=O)NC3CN(c4cc(F)c(C5CCC(=O)NC5=O)c(F)c4)C3)(C1)C2 (centres unmarked) [Compound 82]	UniProt:P24941	Dmax	> 80%
CC1(CCCOC(=O)NC2CN(c3cc(F)c(C4CCC(=O)NC4=O)c(F)c3)C2)CC1 (centres unmarked) [Compound 66]	UniProt:P24941	Dmax	> 80%
O=C1CCC(c2c(F)cc(N3CC(NC(=O)OC4CN(C(=O)c5ccc(F)cc5)C4)C3)cc2F)C(=O)N1 (centres unmarked) [Compound 22]	UniProt:P24941	Dmax	50 to 80%
COc1c(N2CC(Nc3nnc(-c4ccc(OC(F)(F)F)cc4)o3)C2)ccc(C2CCC(=O)NC2=O)c1F (centres unmarked) [Compound 90]	UniProt:P24941	Dmax	> 80%
Cc1cc(Cl)ccc1N(C)C(=O)C12CC(OC(=O)NC3CN(c4cc(F)c(C5CCC(=O)NC5=O)c(F)c4)C3)(C1)C2 (centres unmarked) [Compound 112]	UniProt:P24941	Dmax	10 to 50%
O=C1CCC(c2c(F)cc(N3CC[C@@H](NC(=O)OCC4CC5(CCC5)C4)C3)cc2F)C(=O)N1 (some centres unmarked) [Compound 64]	UniProt:P24941	Dmax	> 80%
O=C1CCC(c2c(F)cc(N3CC(NC(=O)OC4CN(C(=O)N5CC6(CCC6)C5)C4)C3)cc2F)C(=O)N1 (centres unmarked) [Compound 31]	UniProt:P24941	Dmax	50 to 80%

----------
# assay-system: CDK2 (Homo sapiens (Human))
# test-description: CDK2 NanoBiT assay (HiBiT-tagged CDK2 degradation)
# Type: cell-based
# condition-summary: HEK293, HEK293 clonal line, C-terminal HiBiT tag on CDK2, LgBiT; 24 hours

compound	Dmax
Cc1ccccc1N(C)C(=O)N1CC(OC(=O)NC2CN(c3cc(F)c(C4CCC(=O)NC4=O)c(F)c3)C2)C1 (stereo not shown)	50 to 80%
N#Cc1c(N2CC(NC(=O)OCC3CC4(CCC4)C3)C2)ccc(C2CCC(=O)NC2=O)c1Cl (stereo not shown)	50 to 80%
CN(C)C(=O)N1CC(OC(=O)NC2(C)CN(c3cc(F)c(C4CCC(=O)NC4=O)c(F)c3)C2)C1 (stereo not shown)	10 to 50%
O=C1CCC(c2c(F)cc(N3CC[C@H](NC(=O)OCC4CC5(CCC5)C4)C3)cc2F)C(=O)N1 (stereo partly shown)	> 80%
CC(C)(CCOC(=O)NC1CN(c2cc(F)c(C3CCC(=O)NC3=O)c(F)c2)C1)C1CC1 (stereo not shown)	> 80%
C[C@@H]1[C@@H](Nc2nnc(C3CC4(CCC4)C3)o2)CN1c1cc(F)c(C2CCC(=O)NC2=O)c(F)c1 (stereo partly shown)	50 to 80%
CC1(NC(=O)OCC2CC3(CCC3)C2)CN(c2cc(F)c(C3CCC(=O)NC3=O)c(F)c2)C1 (stereo not shown)	> 80%

----------
# assay-system: CDK2 (Homo sapiens (Human), UniProt P24941)
# test-description: CDK2 NanoBiT assay (HiBiT-tagged CDK2 degradation)
# Type: cell-based
# condition-summary: HEK293, HEK293 clonal line, C-terminal HiBiT tag on CDK2, LgBiT; 24 hours
# Dmax per entry

compound	Dmax
O=C1CCC(c2c(F)cc(N3CC(NC(=O)OC4CC5(CCCCC5)C4)C3)cc2F)C(=O)N1 (stereo not drawn) [Compound 67]	> 80%
O=C1CCC(c2c(F)cc(N3CC(Nc4nnc(-c5ccccc5)o4)C3)cc2F)C(=O)N1 (stereo not drawn) [Compound 104]	> 80%
O=C1CCC(c2ccc(N3CC(NC(=O)OCC4CC5(CCC5)C4)C3)cc2Cl)C(=O)N1 (stereo not drawn) [Compound 60]	> 80%
COc1cccc(N(C)C(=O)C23CC(OC(=O)NC4CN(c5cc(F)c(C6CCC(=O)NC6=O)c(F)c5)C4)(C2)C3)c1 (stereo not drawn) [Compound 130]	50 to 80%
CN(C(=O)N1CC(OC(=O)NC2CN(c3cc(F)c(C4CCC(=O)NC4=O)c(F)c3)C2)C1)c1ccc(C#N)cc1 (stereo not drawn) [Compound 73]	50 to 80%
O=C1CCC(c2c(F)cc(N3CC(NC(=O)OCC4CCCCC4)C3)cc2F)C(=O)N1 (stereo not drawn) [Compound 51]	> 80%
COc1c(N2CC(Nc3nnc(C4CC5(CCC5)C4)o3)C2)ccc(C2CCC(=O)NC2=O)c1F (stereo not drawn) [Compound 94]	> 80%
CN(C(=O)N1CC(OC(=O)NC2CN(c3cc(F)c(C4CCC(=O)NC4=O)c(F)c3)C2)C1)c1ccccc1Cl (stereo not drawn) [Compound 71]	50 to 80%
O=C1CCC(c2c(F)cc(N3CC(Nc4nnc(C5CC6(CCC6)C5)o4)C3)cc2F)C(=O)N1 (stereo not drawn) [Compound 107]	> 80%
O=C1CCC(c2c(F)cc(N3CC(NC(=O)OC4CN(C(=O)N5CCC56CCC6)C4)C3)cc2F)C(=O)N1 (stereo not drawn) [Compound 33]	50 to 80%
CN(C(=O)N1CC(OC(=O)NC2CN(c3cc(F)c(C4CCC(=O)NC4=O)c(F)c3)C2)C1)c1ccc(Cl)cc1 (stereo not drawn) [Compound 138]	50 to 80%
C[C@@H]1[C@@H](Nc2nnc(C34CC(C(F)(F)F)(C3)C4)o2)CN1c1cc(F)c(C2CCC(=O)NC2=O)c(F)c1 (stereo partly drawn) [Compound 140]	50 to 80%
O=C1CCC(c2c(F)cc(N3CC(NC(=O)OC4CN(S(=O)(=O)C5CC5)C4)C3)cc2F)C(=O)N1 (stereo not drawn) [Compound 42]	10 to 50%
CN(CC1CC1)C(=O)N1CC(OC(=O)NC2CN(c3cc(F)c(C4CCC(=O)NC4=O)c(F)c3)C2)C1 (stereo not drawn) [Compound 43]	50 to 80%
O=C1CCC(c2c(F)cc(N3CC(NC(=O)OC4CN(C(=O)N5Cc6ccccc6C5)C4)C3)cc2F)C(=O)N1 (stereo not drawn) [Compound 5]	50 to 80%
